EXPERIMENT_DESCRIPTION: Plasma protein binding in human at 5 uM after 4 hrs by rapid equilibrium dialysis method
Assay type: ADME, cell-free
ASSAY_CONDITIONS: read-out: PPB (converted)

- STRUCTURE_STRING: "O=C(c1nc2c(C(F)(F)F)cc(C3CC3)cn2c1Cl)N1CCN([C@H]2CC[C@H](O)CC2)C(=O)C1"
  fraction unbound at 4 h, 5 µM: 0.17
- STRUCTURE_STRING: "O=C(c1nn2c(C(F)(F)F)cc(C3CC3)cc2c1Cl)N1CCN([C@H]2C[C@@H]3C[C@@H]3[C@@H]2O)C(=O)C1"
  fraction unbound at 4 h, 5 µM: 0.06

----------
# key: entry, value: pEC50
Test system: Hepatitis C virus
EXPERIMENT_DESCRIPTION: Antiviral activity against Hepatitis C virus genotype 1a infected in human HuH7 cells after 48 hrs by luciferase reporter gene assay
Type: functional, organism-based, Hepacivirus hominis
ASSAY_CONDITIONS: subtype 1a, Huh-7, 48 h
pEC50: −log10 of the molar value.

- STRUCTURE_STRING: "O=C(c1nn2c(C(F)(F)F)cc(C3CC3)cc2c1Cl)N1CCN([C@@H]2C[C@H]3C[C@H]3C2)C(=O)C1"
  TEST_SYSTEM: "Hepatitis C virus"
  pEC50: 10.00
- STRUCTURE_STRING: "O=C(c1nn2c(C(F)(F)F)cc(C3CC3)cc2c1Cl)N1CCN([C@@H]2C[C@H]3C[C@H]3[C@@H]2O)C(=O)C1"
  TEST_SYSTEM: "Hepatitis C virus"
  pEC50: 8.10
- STRUCTURE_STRING: "O=C(c1nn2c(C(F)(F)F)cc(C3CC3)cc2c1Cl)N1CCN([C@H]2C[C@H]3C[C@H]3[C@H]2O)C(=O)C1"
  TEST_SYSTEM: "Hepatitis C virus"
  pEC50: 6.92
- STRUCTURE_STRING: "O=C(c1nn2c(C(F)(F)F)cc(C3CC3)cc2c1Cl)N1CCN([C@H]2CC[C@H](O)CC2)C(=O)C1"
  TEST_SYSTEM: "Hepatitis C virus"
  pEC50: 9.52

----------
EXPERIMENT_DESCRIPTION: Half life in beagle dog at 1 mg/kg, iv by LC/MS/MS analysis
Format: ADME, organism-based, Canis lupus familiaris
Set-up: dose 1 mg/kg, route intravenous
ASSAY_CONDITIONS: in vivo
METRIC_NAME: half-life (h)

- STRUCTURE_STRING: "O=C(c1nn2c(C(F)(F)F)cc(C3CC3)cc2c1Cl)N1CCN([C@H]2C[C@@H]3C[C@@H]3[C@@H]2O)C(=O)C1"
  EXPERIMENTAL_VALUE: 2

----------
System: Hepatitis C virus
EXPERIMENT_DESCRIPTION: Antiviral activity against Hepatitis C virus genotype 1a infected in human HuH7 cells after 48 hrs by luciferase reporter gene assay
Assay type: functional, organism-based, Hepacivirus hominis
ASSAY_CONDITIONS: subtype 1a, Huh-7, 48 h
pEC50: −log10 of the molar value.
Values of pEC50 greater than or equal to 8 map to YES; values below map to NO.

- MOLECULE: "O=C(c1nn2c(C(F)(F)F)cc(C3CC3)cc2c1Cl)N1CCN([C@H]2C[C@@H]3C[C@@H]3[C@H]2O)C(=O)C1"
  GROUP: "NO"
- MOLECULE: "O=C(c1nc2c(C(F)(F)F)cc(C3CC3)cn2c1Cl)N1CCN([C@H]2CC[C@H](O)CC2)C(=O)C1"
  GROUP: "YES"
- MOLECULE: "O=C(c1nn2c(C(F)(F)F)cc(C3CC3)cc2c1Cl)N1CCN(C(=O)[C@H]2C[C@H](O)C2)CC1"
  GROUP: "YES"
- MOLECULE: "O=C(c1nn2c(C(F)(F)F)cc(C3CC3)cc2c1Cl)N1CCN([C@H]2C[C@@H]3C[C@@H]3[C@@H]2O)C(=O)C1"
  GROUP: "YES"
- MOLECULE: "O=C(c1nn2c(C(F)(F)F)cc(C3CC3)cc2c1Cl)N1CCC2(OCC3(CC3)CO2)C(O)C1 (racemic)"
  GROUP: "YES"
